The origin of these recorded values is PubChem BioAssay (NCI).

PROTOCOL: NCI Yeast Anticancer Drug Screen. Data for the rad50 strain (AID 155);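 note: 0% = growth of vehicle-only cultures of the same strain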
EXPERIMENTAL PARAMETERS: S. cerevisiae rad50 strain growth inhibition; at 50.0 µM; hits give high values
This is part of a sample that, as a whole, favours compounds with a hit. Of some 79,000 tested, about 15% had one in any assay.
OBSERVABLE: growth inhibition (%)

[
  {
    "MOLECULE": "C(=C\\c1ccc(-c2ccccc2)cn1)/c1ccccc1",
    "UNITS OF MEASURE": "%",
    "ENDPOINT VALUE": -8.5
  },
  {
    "MOLECULE": "COCCCn1c(-c2ccc(Cl)cc2)nn2c(=O)c3ccccc3nc2c1=O",
    "UNITS OF MEASURE": "%",
    "ENDPOINT VALUE": 20
  },
  {
    "MOLECULE": "CC(=O)OC1C/C(C)=C/CCC(C)/C=C/C2(C)CCC(C(C)(C)O)C12 (configuration not stated)",
    "UNITS OF MEASURE": "%",
    "ENDPOINT VALUE": 1.7
  },
  {
    "MOLECULE": "COc1ccc(Cl)cc1NC(=O)Nc1ccc(SC)cc1",
    "UNITS OF MEASURE": "%",
    "ENDPOINT VALUE": 24.1
  },
  {
    "MOLECULE": "O=C(c1ccccc1)C(O)(c1ccccc1)C(c1ccccc1)c1ccccc1 (configuration not stated)",
    "UNITS OF MEASURE": "%",
    "ENDPOINT VALUE": 5.8
  },
  {
    "MOLECULE": "C1=Nc2ccccc2/C1=C/C=C/c1ccccc1",
    "UNITS OF MEASURE": "%",
    "ENDPOINT VALUE": 24.6
  },
  {
    "MOLECULE": "CC(C)C1OC2OCCCC2C(C(C)C)O1 (configuration not stated)",
    "UNITS OF MEASURE": "%",
    "ENDPOINT VALUE": 17.2
  },
  {
    "MOLECULE": "CC/C(CC(=O)CCC(=O)Nc1ccccc1[N+](=O)[O-])=N/NC(=O)C[n+]1ccccc1",
    "UNITS OF MEASURE": "%",
    "ENDPOINT VALUE": -1.8
  },
  {
    "MOLECULE": "Cc1cc2c(c(N)c1C)C(=O)c1ccccc1C2=O",
    "UNITS OF MEASURE": "%",
    "ENDPOINT VALUE": 18.4
  },
  {
    "MOLECULE": "COc1ccc(/C(=N\\NC(=O)C(N)=O)C(c2ccc(OC)cc2)C2(O)C(=O)Nc3c(Cl)cccc32)cc1 (configuration not stated)",
    "UNITS OF MEASURE": "%",
    "ENDPOINT VALUE": -9.45
  },
  {
    "MOLECULE": "Cc1ccc(O)c2occ(C)c12",
    "UNITS OF MEASURE": "%",
    "ENDPOINT VALUE": 17.7
  },
  {
    "MOLECULE": "CCOC(=O)CC(=O)c1ccccc1SC",
    "UNITS OF MEASURE": "%",
    "ENDPOINT VALUE": 13.2
  },
  {
    "MOLECULE": "CO/N=C(\\C([O-])=N\\[n+]1cnn(CC(=O)OC(C)(C)C)c1)c1csc(NC(c2ccccc2)(c2ccccc2)c2ccccc2)n1",
    "UNITS OF MEASURE": "%",
    "ENDPOINT VALUE": 39.5
  },
  {
    "MOLECULE": "C/C(CC(=O)Nc1ccc(C)c(C)c1)=N\\NC(N)=O",
    "UNITS OF MEASURE": "%",
    "ENDPOINT VALUE": -31.9
  },
  {
    "MOLECULE": "N#Cc1ccc(-c2nc3ccc(Cl)cc3[nH]2)cc1",
    "UNITS OF MEASURE": "%",
    "ENDPOINT VALUE": -47.9
  },
  {
    "MOLECULE": "CC(=O)Oc1cccn(C)c1=O",
    "UNITS OF MEASURE": "%",
    "ENDPOINT VALUE": 18.6
  },
  {
    "MOLECULE": "C=C1C(=O)O[C@H]2[C@H]1[C@@H](OC(=O)C=C(C)C)CC1=C[C@@H](C[C@@]3(C)O[C@@H]23)OC1=O",
    "UNITS OF MEASURE": "%",
    "ENDPOINT VALUE": -7.45
  },
  {
    "MOLECULE": "O=C1c2ccccc2C(=O)c2c(Cl)ccc(O)c21",
    "UNITS OF MEASURE": "%",
    "ENDPOINT VALUE": 3.15
  },
  {
    "MOLECULE": "COc1ccc2c(c1)C1(C)CCCC(C)(C(N)=O)C1CC2 (configuration not stated)",
    "UNITS OF MEASURE": "%",
    "ENDPOINT VALUE": 0.1
  },
  {
    "MOLECULE": "CCCCCCCCCCCC(=O)NC(=S)Nc1ccc(N(C)C(C)=O)cc1",
    "UNITS OF MEASURE": "%",
    "ENDPOINT VALUE": 90.5
  },
  {
    "MOLECULE": "CN(C)C(SCc1c(Cl)c(Cl)c(Cl)c(Cl)c1Cl)=[N+](C)C",
    "UNITS OF MEASURE": "%",
    "ENDPOINT VALUE": 19.4
  },
  {
    "MOLECULE": "C[C@H]1C(=O)OCN1C(=O)OCc1ccccc1",
    "UNITS OF MEASURE": "%",
    "ENDPOINT VALUE": 0.05
  },
  {
    "MOLECULE": "COC(=O)c1ccc(C(=O)OC)c(NC(=O)CC(=O)c2ccc([N+](=O)[O-])cc2)c1",
    "UNITS OF MEASURE": "%",
    "ENDPOINT VALUE": 46.2
  },
  {
    "MOLECULE": "CC(C)c1ccccc1NC(=O)C(=O)Cc1nc2ccccc2s1",
    "UNITS OF MEASURE": "%",
    "ENDPOINT VALUE": 23.2
  },
  {
    "MOLECULE": "O=C(CCCC(=O)N/N=C/c1cc(Cl)ccc1[N+](=O)[O-])N/N=C\\c1cc(Cl)ccc1[N+](=O)[O-]",
    "UNITS OF MEASURE": "%",
    "ENDPOINT VALUE": 20.7
  },
  {
    "MOLECULE": "C1=Cc2c3c(c4c(c2C1)C=CC4)C=CC3",
    "UNITS OF MEASURE": "%",
    "ENDPOINT VALUE": -1.95
  },
  {
    "MOLECULE": "OC1=CC(C2CCCCC2)CC(O)=C1 (configuration not stated)",
    "UNITS OF MEASURE": "%",
    "ENDPOINT VALUE": 2.95
  },
  {
    "MOLECULE": "CC(=O)c1cccc(NCn2nnc3ccccc32)c1",
    "UNITS OF MEASURE": "%",
    "ENDPOINT VALUE": -47.5
  },
  {
    "MOLECULE": "Cc1ccc(N=Cc2ccc3c(c2)OCO3)cc1C",
    "UNITS OF MEASURE": "%",
    "ENDPOINT VALUE": 8.05
  },
  {
    "MOLECULE": "CCC(O)(c1ccccc1)c1ccccc1",
    "UNITS OF MEASURE": "%",
    "ENDPOINT VALUE": 1.7
  },
  {
    "MOLECULE": "Cc1cc(=O)n(Cc2ccccc2)n1-c1ccccc1",
    "UNITS OF MEASURE": "%",
    "ENDPOINT VALUE": -11
  },
  {
    "MOLECULE": "CCOC(=O)c1ccc(NC(=S)NCc2cccnc2)cc1",
    "UNITS OF MEASURE": "%",
    "ENDPOINT VALUE": 11.6
  },
  {
    "MOLECULE": "Cc1cc([N+](=O)[O-])cnc1Cl",
    "UNITS OF MEASURE": "%",
    "ENDPOINT VALUE": -14.1
  },
  {
    "MOLECULE": "CCN(CC)CCNC(=O)Nc1ccc(OC)cc1",
    "UNITS OF MEASURE": "%",
    "ENDPOINT VALUE": 2.15
  },
  {
    "MOLECULE": "COc1cccc(/C=C2\\S/C(=N/Nc3nc(C)c(C)s3)NC2=O)c1O",
    "UNITS OF MEASURE": "%",
    "ENDPOINT VALUE": 7.7
  },
  {
    "MOLECULE": "C=CCN1C(=O)CS/C1=N\\NC(=O)c1c(C)nc2sccn12",
    "UNITS OF MEASURE": "%",
    "ENDPOINT VALUE": -16.3
  },
  {
    "MOLECULE": "Cc1cc(OCCCC[N+](C)(C)Cc2ccc(Br)o2)c(C(C)C)cc1Cl",
    "UNITS OF MEASURE": "%",
    "ENDPOINT VALUE": 99.5
  },
  {
    "MOLECULE": "CC(=O)Nc1ccccc1/C=C\\c1ccccn1",
    "UNITS OF MEASURE": "%",
    "ENDPOINT VALUE": -21.6
  },
  {
    "MOLECULE": "CCCN(CCC)S(=O)(=O)c1ccc(NC(=O)OC(CC)c2ccco2)cc1 (configuration not stated)",
    "UNITS OF MEASURE": "%",
    "ENDPOINT VALUE": 27.8
  },
  {
    "MOLECULE": "CC1SC2=NC3=C(c4ccccc4C3=O)C(c3ccc(F)cc3)N2C1=O (configuration not stated)",
    "UNITS OF MEASURE": "%",
    "ENDPOINT VALUE": 34.4
  },
  {
    "MOLECULE": "CC(=O)N1OCCc2ccccc21",
    "UNITS OF MEASURE": "%",
    "ENDPOINT VALUE": 8.2
  },
  {
    "MOLECULE": "CC(=O)Nn1cnc(C(=N)C#N)c1N",
    "UNITS OF MEASURE": "%",
    "ENDPOINT VALUE": -27.1
  },
  {
    "MOLECULE": "CNNC1=NS(=O)(=O)c2cc(C(=O)OC)c(Cl)cc2S1",
    "UNITS OF MEASURE": "%",
    "ENDPOINT VALUE": 8.75
  },
  {
    "MOLECULE": "O=C(Nc1ccc(Cl)cc1)Nc1nnc(-c2ccc(F)cc2)o1",
    "UNITS OF MEASURE": "%",
    "ENDPOINT VALUE": 5.5
  },
  {
    "MOLECULE": "CC(=O)Nc1ccc(NC(=O)Nc2cccc(Cl)c2C)cc1",
    "UNITS OF MEASURE": "%",
    "ENDPOINT VALUE": 2.75
  },
  {
    "MOLECULE": "CN(C)C(=S)N(C(=S)N(C)C)c1ccc(Cl)cc1",
    "UNITS OF MEASURE": "%",
    "ENDPOINT VALUE": -7.9
  },
  {
    "MOLECULE": "c1ccc(-c2ccccc2N=C2N=NN=N2)cc1",
    "UNITS OF MEASURE": "%",
    "ENDPOINT VALUE": -1
  }
]
